assayDetails: Food effect study (high-fat meal), atogepant IR tablet: plasma PK
Format: in vivo, human
conditionSet: both sexes, human, plasma, oral, 60 mg, Study Intervention A: 1 × 60 mg IR tablet, fed; read-out: Tmax (median)
propertyLabel: Tmax (h)

testsmiles=C[C@@H]1[C@H](c2c(F)ccc(F)c2F)C[C@H](NC(=O)c2cnc3c(c2)C[C@@]2(C3)C(=O)Nc3ncccc32)C(=O)N1CC(F)(F)F propertylabel=Tmax reportedvalue=2.01

----------
Tested on: plasma protein
assayDetails: Hepatic impairment study: atogepant plasma protein binding
Format: in vitro ADME, human
conditionSet: human, moderate-impaired, 0 hr (predose, spiked sample); read-out: plasma protein binding, percent bound (converted)
Experimental: Protein binding blood samples were collected from all participants starting on Day 1 at 0 hour (predose) and at 2 hours post dose. The pre-dose samples collected prior to dosing for each participant were externally spiked with known quantities of atogepant. Percent bound atogepant was determined in the 2-hour sample using direct measurement of the atogepant concentrations in the blood sample.
propertyLabel: fraction unbound

molecule="C[C@@H]1[C@H](c2c(F)ccc(F)c2F)C[C@H](NC(=O)c2cnc3c(c2)C[C@@]2(C3)C(=O)Nc3ncccc32)C(=O)N1CC(F)(F)F [atogepant]" system="plasma protein" reportedvalue=0.034
